Just for reference, patent US20240150370A1 is where these values come from.

Reported activation at 10 µM values are given for each entry in this list.
Molecular target: human TAAR1 receptor (Homo sapiens (Human))
Experiment: Evaluation of agonist activity on human TAAR1 receptor (cAMP assay)
Assay type: cell-based
Conditions: CHO, 0.5 h, 10000 nM; cAMP in human TAAR1-expressing CHO cells; relative to 100 μM tyramine; read-out: TAAR1 agonist activity at each concentration (%)
Where a name gives a salt, the structure may show the parent alone.
ENDPOINT LABEL: activation at 10 µM (%)

COMPOUND | UNIT SPEC | RECORDED NUMBER
Cc1ccc2c(n1)C(CN)C(C)(C)O2 (stereo not drawn) | % | 99
Cc1ccc2c(n1)[C@@H](CN)C[C@@H](C)O2 | % | 25
NC[C@H]1CSc2cccnc21 (single isomer, unassigned) [Example 41, dihydrochloride] | % | 65
Cc1ccnc2c1CCCC2CN (racemic) | % | 0
COc1ccc2c(n1)C(CN)CCC2 (racemic) [Example 88, dihydrochloride] | % | 65
NCC1c2nc(F)ccc2OC12CC2 (stereo not drawn) | % | 101
Cc1cnc2c(c1)O[C@H](C)[C@H]2CN | % | 71
Cc1ccc2c(n1)[C@@H](CN)C1(CC1)O2 (single isomer, unassigned) [Example 100, dihydrochloride] | % | 50
CCOc1ccnc2c1CCC2CN (stereo not drawn) | % | 33
[2H][C@]1(C)Oc2cccnc2[C@H]1CN (relative stereo) [Example 95, dihydrochloride] | % | 96
CNCC1c2nc(C)ccc2OC1(C)C (stereo not drawn) | % | 90
C[C@H]1Oc2cc(Cl)cnc2[C@@H]1CN [Example 37, dihydrochloride] | % | 72
Cc1ccc2c(n1)C(CN)CCS2 (stereo not drawn) | % | 75
COCCNC[C@H]1c2ncccc2O[C@@H]1C | % | 40
NC[C@@H]1c2nc(F)ccc2OC12CC2 (single isomer, unassigned) [Example 102, dihydrobromide] | % | 59
C[C@H]1Oc2ccc(C(F)(F)F)nc2[C@@H]1CN | % | 63
NCC1CCNc2cccnc21 (stereo not drawn) | % | 68
CCCNC[C@H]1c2ncccc2O[C@@H]1C | % | 23
CNC[C@@H]1C[C@H](C)Oc2cccnc21 | % | 75
CC(C)[C@H]1Oc2cccnc2[C@@H]1CN (racemic) | % | 81
CC[C@@H]1C[C@@H](CN)c2ncccc2O1 (racemic) | % | 66

* * *

Target: human TAAR1 receptor (Homo sapiens (Human), UniProt Q96RJ0)
Sequence (Q96RJ0 whole entry): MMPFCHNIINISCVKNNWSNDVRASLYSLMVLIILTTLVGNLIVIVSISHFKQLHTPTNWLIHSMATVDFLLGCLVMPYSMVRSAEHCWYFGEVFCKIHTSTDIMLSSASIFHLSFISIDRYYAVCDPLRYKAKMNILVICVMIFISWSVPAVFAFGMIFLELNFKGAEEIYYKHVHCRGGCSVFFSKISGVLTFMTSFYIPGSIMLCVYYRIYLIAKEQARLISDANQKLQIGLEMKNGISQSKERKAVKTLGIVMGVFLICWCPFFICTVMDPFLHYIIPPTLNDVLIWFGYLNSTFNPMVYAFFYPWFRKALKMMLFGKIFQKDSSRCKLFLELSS
Assay: Evaluation of agonist activity on human TAAR1 receptor (cAMP assay)
Assay type: cell-based
Conditions: CHO, 0.5 h, 10000 nM; cAMP in human TAAR1-expressing CHO cells; relative to 100 μM tyramine; read-out: TAAR1 agonist activity at each concentration (%)
Counter-ions that a name gives are not always drawn.
Note to self: class labels come from recorded activation at 10 µM, ranges listed here: label 0: < 60%; label 1: ≥ 60% and < 80%; label 2: ≥ 80%

COMPOUND | ASSIGNED CLASS
COC[C@H]1Oc2cccnc2[C@@H]1CN (racemic) | label 0
NCC1c2ncccc2OCC12CC2 (centres unmarked) | label 1
NC[C@@H]1c2ncc(Cl)cc2OC12CC2 (single isomer, unassigned) [Example 98, dihydrochloride] | label 0
NC[C@@H]1c2ncccc2OC12CC2 (single isomer, unassigned) [Example 96, dihydrochloride] | label 1
NCC1CCSc2cccnc21 (centres unmarked) | label 1
[2H]C([2H])([2H])NC[C@H]1c2ncc(F)cc2O[C@@H]1C | label 1
NCC1CCOc2ccc(C(F)(F)F)nc21 (centres unmarked) | label 0
C[C@H]1[C@H](CN)c2ncccc2O[C@@H]1C (racemic) | label 1
C[C@H]1C[C@@H](CN)c2ncccc2S1 (racemic) | label 1
Cc1ccc2c(n1)[C@H](CN)[C@@H](C)O2 | label 2
NC[C@H]1c2ncc(Cl)cc2OC12CC2 (single isomer, unassigned) [Example 99, dihydrochloride] | label 1
CC[C@H]1COc2cccnc2[C@@H]1CN (racemic) | label 0
Cc1ccnc2c1O[C@H](C)[C@H]2CN [Example 34, dihydrochloride] | label 2
Cc1ccc2c(n1)C(CN)C1(CC1)O2 (racemic) [Example 90, dihydrochloride] | label 2
NC[C@H]1c2ncccc2O[C@H]2CCCC[C@@H]21 (racemic) [Example 33, dihydrochloride] | label 0
CNC[C@@H]1C[C@@H](C)Oc2ccc(C)nc21 | label 2
NC[C@H]1CCSc2cccnc21 (single isomer, unassigned) [Example 39, dihydrochloride] | label 0
NCC1CCc2c(OC3CCC3)ccnc21 (racemic) [Example 91, dihydrochloride] | label 0
C=CCNC[C@H]1c2ncccc2O[C@@H]1C | label 0
CNC[C@H]1c2nc(C)ccc2O[C@@H]1C | label 2
CNC[C@H]1c2ncc(F)cc2O[C@@H]1C [Example 49, dihydrobromide] | label 1
C[C@@H]1Sc2cccnc2[C@@H]1CN (racemic) | label 1
CC[C@@H]1COc2cccnc2[C@@H]1CN (racemic) | label 1
CNC[C@H]1c2ncc(Cl)cc2O[C@@H]1C | label 1
NC[C@H]1c2ncccc2O[C@@H]1CO (racemic) | label 1
[2H][C@@]1(C)Oc2cccnc2[C@H]1CN (stereo in doubt) [Example 94, dihydrochloride] | label 0
C[C@H]1Oc2ccc(Cl)nc2[C@@H]1CN [Example 38, dihydrochloride] | label 2
C[C@H]1Oc2cccnc2[C@@H]1C(C)(C)N | label 2
NC[C@@H]1CCSc2cccnc21 (single isomer, unassigned) [Example 40, dihydrochloride] | label 1
NCC1CSc2cccnc21 (centres unmarked) | label 2
CC[C@H]1Oc2cccnc2[C@@H]1CN (stereo in doubt) [Example 43, dihydrochloride] | label 0
C[C@H]1COc2cccnc2[C@H]1CN (stereo in doubt) [Example 3, dihydrochloride] | label 0
C[C@H]1[C@H](C)Oc2cccnc2[C@H]1CN (racemic) | label 0
NCC1CCc2c(Cl)ccnc21 (centres unmarked) | label 1
